Data provenance is patent US9346811B2.

Target: recombinant BACE1 protein (Homo sapiens, UniProt P56817)
Sequence (P56817 46-501): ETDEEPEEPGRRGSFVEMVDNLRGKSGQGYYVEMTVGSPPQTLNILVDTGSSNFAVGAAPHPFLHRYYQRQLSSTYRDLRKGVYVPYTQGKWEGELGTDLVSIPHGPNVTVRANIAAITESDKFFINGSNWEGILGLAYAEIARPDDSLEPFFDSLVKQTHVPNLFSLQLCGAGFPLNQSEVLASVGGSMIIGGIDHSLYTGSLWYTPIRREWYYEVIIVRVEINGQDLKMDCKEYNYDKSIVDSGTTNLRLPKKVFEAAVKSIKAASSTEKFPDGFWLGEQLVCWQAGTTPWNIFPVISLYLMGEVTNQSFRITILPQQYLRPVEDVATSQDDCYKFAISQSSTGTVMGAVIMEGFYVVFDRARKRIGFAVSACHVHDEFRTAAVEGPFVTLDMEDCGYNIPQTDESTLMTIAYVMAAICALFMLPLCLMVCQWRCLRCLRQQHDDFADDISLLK
Test: Biochemical FRET based assay
Conditions: recombinant BACE1 1 μg/ml, 120 min, pH 5.0
assay_endpoint: Biochemical FRET based assay pIC50

compound: Cc1nc(C(=O)Nc2ccc(F)c(C3(C)Cn4ncc(F)c4C(N)=N3)c2)c(C)o1 (centres unmarked)
observed_value: 7.04
--
compound: CC1(c2cc(NC(=O)c3ccc(Cl)cn3)ccc2F)Cn2nc(C(F)F)cc2C(N)=N1 (centres unmarked)
observed_value: 7.39

(1) Cc1nc(C(=O)Nc2ccc(F)c(C3(C)Cn4nc(C#N)cc4C(N)=N3)c2)co1 (centres unmarked)
(2) COc1cnc(C(=O)Nc2cccc(C3(C)Cn4nc(C(F)(F)F)cc4C(N)=N3)c2)cn1 (single isomer, unassigned) [Compound 31]
Problem: Param metric = Biochemical FRET based assay pIC50; output whichever of 1 , 2 has the minimum value. I would appreciate it if you answered with the label of your choice.
Result: 2
(2: 4.97, 1: 7.53)

###

Target: recombinant BACE1 protein (Homo sapiens, UniProt P56817)
Experiment: Biochemical FRET based assay
Details: recombinant BACE1 1 μg/ml, 120 min, pH 5.0; read-out: Biochemical FRET based assay pIC50 (converted)
assay_endpoint: IC50 (nM)

Some molecules with known IC50 results, for comparison:
molecule: COc1cnc(C(=O)Nc2ccc(F)c([C@]3(C)Cn4nc(C)c(F)c4C(N)=N3)c2)cn1 [Compound 29]
measured_on: recombinant BACE1 protein (Homo sapiens, UniProt P56817)
assay_endpoint: IC50
observed_value: 81.3

molecule: COc1cnc(C(=O)Nc2ccc(F)c(C3(C(F)F)Cn4nccc4C(N)=N3)c2)cn1 (single isomer, unassigned) [Compound 19]
measured_on: recombinant BACE1 protein (Homo sapiens, UniProt P56817)
assay_endpoint: IC50
observed_value: 9770

molecule: C[C@@]1(c2cc(NC(=O)c3ccc(C#N)cn3)ccc2F)Cn2nc(C#N)cc2C(N)=N1 [Compound 26]
measured_on: recombinant BACE1 protein (Homo sapiens, UniProt P56817)
assay_endpoint: IC50
observed_value: 49

molecule: COc1cnc(C(=O)Nc2ccc(F)c([C@]3(C)Cn4ncc(F)c4C(N)=N3)c2)cn1 [Compound 13]
measured_on: recombinant BACE1 protein (Homo sapiens, UniProt P56817)
assay_endpoint: IC50
observed_value: 72.4

molecule: CC1(c2cc(NC(=O)c3ncc(Cl)cc3Cl)ccc2F)Cn2nccc2C(N)=N1 (racemic) [Compound 14]
measured_on: recombinant BACE1 protein (Homo sapiens, UniProt P56817)
assay_endpoint: IC50
observed_value: 35.5

(P) NC1=NC(c2cc(NC(=O)c3ccc(F)cn3)ccc2F)(C(F)F)Cn2nccc21 (single isomer, unassigned) [Compound 22]
(Q) COc1cnc(C(=O)Nc2ccc(F)c([C@]3(C)Cn4nc(C(F)F)cc4C(N)=N3)c2)cn1 [Compound 28]
Problem: Looking at recorded values for IC50, does P or Q come in lower? To answer, give the label that identifies your chosen option.
Result: P
(P: 25.7 nM, Q: 69.2 nM)

###

Tested on: Aβtotal produced and secreted into the medium of human neuroblastoma SKNBE2 cells
Experiment: Cellular αlisa assay in SKNBE2 cells, Aβtotal
Format: cell-based
Conditions: SKNBE2 cells expressing hAPP695, 18 hours incubation
assay_endpoint: Cellular αlisa assay in SKNBE2 cells Aβtotal pIC50

Reference set (5 entries):
molecule: COc1cnc(C(=O)Nc2cccc(C3(C)Cn4nc(C(F)(F)F)cc4C(N)=N3)c2)cn1 (racemic) [Compound 30]
observed_value: 7.45

molecule: CC1(c2cccc(NC(=O)c3ncc(Cl)cc3Cl)c2)Cn2nccc2C(N)=N1 (single isomer, unassigned) [Compound 4]
observed_value: 5.84

molecule: Cc1nc(C(=O)Nc2ccc(F)c(C3(C)Cn4ncc(F)c4C(N)=N3)c2)c(C)o1 (centres unmarked)
observed_value: 7.53

molecule: CC1(c2cc(NC(=O)c3ncc(Cl)cc3Cl)ccc2F)Cn2nccc2C(N)=N1 (single isomer, unassigned) [Compound 15]
observed_value: 9.37

molecule: CC1(c2cccc(NC(=O)c3ncc(Cl)cc3Cl)c2)Cn2nc(C(F)(F)F)cc2C(N)=N1 (single isomer, unassigned) [Compound 12]
observed_value: 5.75

(I) CC1(c2cccc(NC(=O)c3ccc(C#N)cn3)c2)Cn2nccc2C(N)=N1 (single isomer, unassigned) [Compound 7]
(II) COc1cnc(C(=O)Nc2cccc(C3(C)Cn4nc(C(F)(F)F)cc4C(N)=N3)c2)cn1 (single isomer, unassigned) [Compound 31]
Problem: Compare reported Cellular αlisa assay in SKNBE2 cells Aβtotal pIC50 values for I and II . Which is lower? Provide the label of your selected option as the answer.
Result: II
(II: 5.61, I: 8.69)

###

Examples of molecules with documented Aβtotal (% Ctrl)_Mean follow.
System: brain levels of total Aβ
Assay: In vivo efficacy: brain Aβtotal lowering (ELISA)
Design: species or system mouse
Details: 10 mg/kg p.o., 4 h. after administration
Please give a number only; it is taken to be in % Ctrl.

Study these solved cases before continuing.
chemical_smiles: COc1cnc(C(=O)Nc2ccc(F)c([C@]3(C)Cn4nc(C(F)F)cc4C(N)=N3)c2)cn1
unit: % Ctrl
observed_value: 50
--
chemical_smiles: COc1cnc(C(=O)Nc2ccc(F)c([C@]3(C)Cn4nc(C)c(F)c4C(N)=N3)c2)cn1
unit: % Ctrl
observed_value: 58
--
chemical_smiles: C[C@@]1(c2cc(NC(=O)c3ccc(F)cn3)ccc2F)Cn2nc(C(F)F)cc2C(N)=N1
unit: % Ctrl
observed_value: 61

Next up:
Item: COc1cnc(C(=O)Nc2ccc(F)c([C@]3(C)Cn4nc(C#N)cc4C(N)=N3)c2)cn1 | Aβtotal (% Ctrl)_Mean: 39

###

Tested on: Aβtotal produced and secreted into the medium of human neuroblastoma SKNBE2 cells
Experiment: Cellular αlisa assay in SKNBE2 cells, Aβtotal
Assay type: cell-based
Settings: SKNBE2 cells expressing hAPP695, 18 hours incubation
assay_endpoint: Cellular αlisa assay in SKNBE2 cells Aβtotal pIC50

compound: Cc1nc(C(=O)Nc2ccc(F)c(C3(C)Cn4nc(C#N)cc4C(N)=N3)c2)co1 (stereo not drawn)
observed_value: 8.70
--
compound: COc1cnc(C(=O)Nc2ccc(F)c(C3(C(F)F)Cn4nccc4C(N)=N3)c2)cn1 (single isomer, unassigned) [Compound 18]
observed_value: 7.54
--
compound: Cc1nn2c(c1F)C(N)=NC(C)(c1cc(NC(=O)c3ccn(C(F)F)n3)ccc1F)C2 (stereo not drawn)
observed_value: 7.99
--
compound: CC1(c2cccc(NC(=O)c3ncc(Cl)cc3Cl)c2)Cn2nc(C(F)(F)F)cc2C(N)=N1 (single isomer, unassigned) [Compound 11]
observed_value: 8.01
--
compound: CC1(c2cc(NC(=O)c3ccc(F)cn3)ccc2F)Cn2ncc(F)c2C(N)=N1 (stereo not drawn)
observed_value: 8.14
--
compound: CC1(c2cccc(NC(=O)c3ncc(Cl)cc3Cl)c2)Cn2nccc2C(N)=N1 (single isomer, unassigned) [Compound 5]
observed_value: 8.55
--
compound: Cc1nn2c(c1F)C(N)=NC(C)(c1cc(NC(=O)c3ccc(F)cn3)ccc1F)C2 (racemic)
observed_value: 7.67
--
compound: CC1(c2cc(NC(=O)c3ccn(C(F)F)n3)ccc2F)Cn2nc(C(F)F)cc2C(N)=N1 (stereo not drawn)
observed_value: 8.37
--
compound: COc1cnc(C(=O)Nc2cccc(C3(C)Cn4nc(C(F)(F)F)cc4C(N)=N3)c2)cn1 (single isomer, unassigned) [Compound 32]
observed_value: 7.84
--
compound: CC1(c2cc(NC(=O)c3ccc(Cl)cn3)ccc2F)Cn2nc(C(F)F)cc2C(N)=N1 (stereo not drawn)
observed_value: 8.59
--
compound: Cc1nc(C(=O)Nc2ccc(F)c(C3(C)Cn4ncc(F)c4C(N)=N3)c2)c(C(F)(F)F)o1 (stereo not drawn)
observed_value: 7.30

###

Tested on: brain levels of soluble Aβ42
Assay: In vivo efficacy: brain Aβ42 lowering (ELISA)
Set-up: species or system mouse
Conditions: 10 mg/kg p.o., 4 h. after administration
assay_endpoint: Aβ42 (% Ctrl)_Mean
Provide the reading as a plain figure in % Ctrl.

chemical_smiles: C[C@@]1(c2cc(NC(=O)c3ccc(F)cn3)ccc2F)Cn2nc(C(F)F)cc2C(N)=N1
measured_on: brain levels of soluble Aβ42
observed_value: 55
//
chemical_smiles: COc1cnc(C(=O)Nc2ccc(F)c([C@]3(C)Cn4nc(C(F)F)cc4C(N)=N3)c2)cn1
measured_on: brain levels of soluble Aβ42
observed_value: 39
//
chemical_smiles: COc1cnc(C(=O)Nc2ccc(F)c([C@]3(C)Cn4nc(C#N)cc4C(N)=N3)c2)cn1
measured_on: brain levels of soluble Aβ42
observed_value: 45

Proceeding to the next compound to report its Aβ42 (% Ctrl)_Mean.
// Aβ42 (% Ctrl)_Mean value for COc1cnc(C(=O)Nc2ccc(F)c([C@]3(C)Cn4nc(C)c(F)c4C(N)=N3)c2)cn1 : 59
